Biological target: T1, Recombinant Human ADAMTS13 (Full Length) Protein (Homo sapiens, UniProt Q76LX8)
T1 construct: ADAMTS13, human, commercial recombinant protein named 'Full Length' by the vendor; also called a disintegrin-like and metalloproteinase with thrombospondin type-1 motif 13; source: bought: R&D Systems (6156-AD-020)
T1 sequence (Q76LX8 75-1427): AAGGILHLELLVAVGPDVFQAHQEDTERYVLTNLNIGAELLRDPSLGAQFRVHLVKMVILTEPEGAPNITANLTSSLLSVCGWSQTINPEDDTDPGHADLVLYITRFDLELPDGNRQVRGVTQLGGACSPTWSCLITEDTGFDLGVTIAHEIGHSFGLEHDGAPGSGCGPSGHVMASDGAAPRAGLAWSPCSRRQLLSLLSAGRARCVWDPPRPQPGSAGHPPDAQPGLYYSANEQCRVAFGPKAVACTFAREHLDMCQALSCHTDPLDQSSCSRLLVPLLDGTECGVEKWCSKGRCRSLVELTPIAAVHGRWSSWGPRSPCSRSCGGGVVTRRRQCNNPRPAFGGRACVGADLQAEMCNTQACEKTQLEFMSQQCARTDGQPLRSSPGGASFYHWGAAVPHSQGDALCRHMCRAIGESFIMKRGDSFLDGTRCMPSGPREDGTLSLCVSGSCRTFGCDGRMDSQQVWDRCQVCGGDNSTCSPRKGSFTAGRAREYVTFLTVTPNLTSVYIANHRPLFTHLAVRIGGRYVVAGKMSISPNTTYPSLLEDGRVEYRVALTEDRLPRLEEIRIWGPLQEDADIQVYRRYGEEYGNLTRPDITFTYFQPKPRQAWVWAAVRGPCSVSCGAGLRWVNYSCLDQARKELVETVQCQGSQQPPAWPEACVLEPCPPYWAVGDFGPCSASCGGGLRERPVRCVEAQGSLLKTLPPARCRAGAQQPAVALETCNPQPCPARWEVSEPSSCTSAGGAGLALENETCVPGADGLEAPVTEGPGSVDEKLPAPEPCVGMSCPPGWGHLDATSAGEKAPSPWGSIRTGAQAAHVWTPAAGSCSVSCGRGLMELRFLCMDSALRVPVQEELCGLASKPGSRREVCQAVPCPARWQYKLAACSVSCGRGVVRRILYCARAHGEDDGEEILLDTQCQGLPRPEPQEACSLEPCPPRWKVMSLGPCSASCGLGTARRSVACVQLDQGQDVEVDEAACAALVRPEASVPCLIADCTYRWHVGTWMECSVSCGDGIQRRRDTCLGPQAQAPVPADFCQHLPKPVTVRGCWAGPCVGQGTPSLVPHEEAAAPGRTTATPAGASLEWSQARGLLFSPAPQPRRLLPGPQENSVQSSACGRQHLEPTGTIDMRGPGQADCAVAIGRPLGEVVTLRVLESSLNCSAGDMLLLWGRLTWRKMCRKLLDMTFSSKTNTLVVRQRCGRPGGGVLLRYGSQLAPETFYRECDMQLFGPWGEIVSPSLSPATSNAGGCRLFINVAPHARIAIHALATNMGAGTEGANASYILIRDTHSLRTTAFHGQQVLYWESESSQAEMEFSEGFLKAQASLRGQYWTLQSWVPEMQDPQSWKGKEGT
Experiment: SPR; Biacore T200; antibodies captured at about 1,000 RU on anti-human or anti-mouse IgG (Fc) on a CM5 chip; ADAMTS13 injected at 80 nM to 0.625 nM in PBS with 0.05% Tween 20; 25 C; 30 uL/min; contact 240 s, dissociation 900 s; 1:1 binding model
Conditions: both partners purified
Form field: koff (one value per entry).
Hi, when you answer, please include the unit after the number. Thanks!

Below are worked cases with known answers.
// query Value lookup for koff; key = humanized A10 antibody A10/16E8 (antibody, V domains shown, VH of A10/16E8 (CDRs and flanking FR residues of mA10 grafted onto the human framework 16E8); VL of A10/16E8 (CDRs and flanking FR residues of mA10 grafted onto the human framework 16E8); also called A10/16A8 (as printed once in the discussion); source: Expi293F, transiently transfected, purified (protein G)) VH: QVQLVQSGGQVKKPGASVKISCKASGYSFTGYTMHWVKQAPGRGLEWIGLINPYNGGTGYNQKFKGKATLTVDKSSSTTYIELLSLTSEDSAVYYCARTSGYLFAYWGQGTLVTVSS VL: DIVLTQTPDSLAVSLGERATITCKASEDIYNRLAWYQQKAGQPPKLLISGATSLETGVPDRFSGSGSGTDFTLTISSLQAEDVATYYCQQYWSSPLTFGAGTKVNIK
// result 6.3e-05 s⁻¹

// query Which koff is listed for mouse anti-ADAMTS13 antibody clone A10 (antibody, V domains shown, VH of mA10; mouse heavy chain constant region cloned from the mA10 hybridoma; VL of mA10; mouse light chain constant region cloned from the mA10 hybridoma; Whole mouse IgG; mouse IgG2b served as the negative control, which may hint at IgG2b (surmise); also called mA10; mouse A10; source: Expi293F, transiently transfected, purified (protein G)) VH: EVQLQQSGPELVKPGTSMKISCKASGYSFTGYTMHWVKQSHGKNLEWIGLINPYNGGTGYNQKFKGKATLTVDKSSSTTYIELLSLTSEDSAVYYCARTSGYLFAYWGQGTLVTVSA VL: DIQMTQSSSSFSVSLGDRVTITCKASEDIYNRLAWYQQKPGNAPRLLISGATSLETGVPSRFSGSGSGKDYIFSITSLQTEDVATYYCQQYWSSPLTFGAGTKLELK ?
// result 0.000362 s⁻¹

// query Query (binder): humanized A10 antibody A10/8A7 (antibody, V domains shown) VH: QIHLVESGGGVVQTGKSMKISCKASGYSFTGYTMHWVKQTPGKNLEWIGLINPYNGGTGYNQKFKGKATLTVDKSSSTTYIELLSLTSEDSAVYYCARTSGYLFAYWGQGTLVTVSS VL: ETVMTQSPATLSVSPGERATITCKASEDIYNRLAWYQQKPGQAPRLLISGATSLETGVPSRFSGSGSGTEFTLTISSLQSEDVATYYCQQYWSSPLTFGAGTKLEIK ; field requested: koff
// result 0.000193 s⁻¹

Next up:
// query I'd like to know its koff. The binder in question is human-mouse chimeric A10 (antibody, V domains shown) VH: EVQLQQSGPELVKPGTSMKISCKASGYSFTGYTMHWVKQSHGKNLEWIGLINPYNGGTGYNQKFKGKATLTVDKSSSTTYIELLSLTSEDSAVYYCARTSGYLFAYWGQGTLVTVSA VL: DIQMTQSSSSFSVSLGDRVTITCKASEDIYNRLAWYQQKPGNAPRLLISGATSLETGVPSRFSGSGSGKDYIFSITSLQTEDVATYYCQQYWSSPLTFGAGTKLELK
// result 2.03e-05 s⁻¹
